B1: TTC32 (parent)
chain: YSAYIRRCACAASSDESPGSKCSP

Variants of: B1
Experiment: protein stability index of a GFP-peptide fusion (GPS, HEK-293T) (PSI 1-6); higher = more stable;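 note: lentivirally expressed fusions sorted by FACS into six bins by GFP to DsRed ratio, PSI derived from sequencing read proportions per bin multiplied by bin number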
Conditions: c terminus: a fixed tail appended
quantity: protein stability index

    mutation_code  obs_value
 0           P24V       2.93
 1            R7D       3.92
 2           A11D       1.98
 3            R6S       2.41
 4           S13G       2.57
 5            Y4G       3.35
 6            S2Q       2.02
 7            Y4D       3.36
 8            C8H       2.91
 9           S23Q       2.05
10           C22R       2.14
11           S13E       2.03
12           S17Q       1.96
13            A9K       2.38
14            C8Q       3.23
15           C22Y       1.65
16           S23A       1.87
17           P24I       2.25
18            C8A        3.5
19            I5T       2.61
20           C10D        3.2
21            A9L       2.26
22           G19C       4.24
23           A12I       1.78
24            Y1W       2.45
25           D15I       2.06
26            S2C       2.06
27           S17G       2.08
